molecular target: Human α-thrombin (Homo sapiens); construct: Human α-thrombin was obtained from J. Freysinnet (Strasbourg); purchased J. Freysinnet (Strasbourg); test: Score assay, Thr (chromogenic substrate S-2238); assay type: biochemical; conditions: Table 3; Score = fold increase in inhibitor concentration / concentration of inhibitor used (in mM); 37° C., pH 7.4
OUTCOME_MEASURE: Thr Score

Guide cases for Thr Score, answers given:
CC1(C)OB(c2ccc(Oc3ccc(Oc4ccccc4)cc3)c(CSC(=N)N)c2)OC1(C)C: 455
N#Cc1cccc(Oc2ccc(B(O)O)cc2CSC(=N)N)c1: 4156
COc1ccc(CSC(=N)N)cc1B1OC(C)(C)C(C)(C)O1: 1210

[I] N=C(N)SCc1ccccc1B(O)O
[II] CN=C(N)SCc1cccc(B(O)O)c1
[III] N=C(N)SCc1cc(B(O)O)ccc1Oc1ccc2c(c1)CCCC2
Arrange the 3 entries by Thr Score so the values rise. To answer, write out the labels according to the requested order.
II, I, III
(II: 38.7, I: 70, III: 2174)

[A] COc1cccc(Oc2ccc(B3OC(C)(C)C(C)(C)O3)cc2CSC(=N)N)c1
[B] CC1(C)OB(c2ccc(Oc3ccccc3)c(CSC(=N)N)c2)OC1(C)C
[C] Cc1cc(CSC(=N)N)cc(B(O)O)c1
[D] N=C(N)SCc1ccc(B(O)O)cc1
[E] CC(SC(=N)N)c1cccc(B2OC(C)(C)C(C)(C)O2)c1 (stereo not drawn)
Order these by Thr Score, descending, and give the full ranking. Return the labels ranked in the requested order, please.
E, B, C, A, D
(E: 6769, B: 2768, C: 1645, A: 666, D: 6.4)

---

molecular target: UniProt:P00747; assay: Score assay, Pla (chromogenic substrate S-2251); assay type: biochemical; details: Table 3, substrate 113 μM
Sequence (P00747 581-810 limits assumed, species assumed): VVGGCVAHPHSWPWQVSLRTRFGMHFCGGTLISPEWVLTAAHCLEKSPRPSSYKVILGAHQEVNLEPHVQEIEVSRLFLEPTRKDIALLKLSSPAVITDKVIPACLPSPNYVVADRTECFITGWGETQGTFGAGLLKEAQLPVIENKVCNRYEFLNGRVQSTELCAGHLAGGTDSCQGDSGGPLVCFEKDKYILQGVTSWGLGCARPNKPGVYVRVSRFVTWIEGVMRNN
Sequence (P00747 97-580 partner limits assumed, species assumed): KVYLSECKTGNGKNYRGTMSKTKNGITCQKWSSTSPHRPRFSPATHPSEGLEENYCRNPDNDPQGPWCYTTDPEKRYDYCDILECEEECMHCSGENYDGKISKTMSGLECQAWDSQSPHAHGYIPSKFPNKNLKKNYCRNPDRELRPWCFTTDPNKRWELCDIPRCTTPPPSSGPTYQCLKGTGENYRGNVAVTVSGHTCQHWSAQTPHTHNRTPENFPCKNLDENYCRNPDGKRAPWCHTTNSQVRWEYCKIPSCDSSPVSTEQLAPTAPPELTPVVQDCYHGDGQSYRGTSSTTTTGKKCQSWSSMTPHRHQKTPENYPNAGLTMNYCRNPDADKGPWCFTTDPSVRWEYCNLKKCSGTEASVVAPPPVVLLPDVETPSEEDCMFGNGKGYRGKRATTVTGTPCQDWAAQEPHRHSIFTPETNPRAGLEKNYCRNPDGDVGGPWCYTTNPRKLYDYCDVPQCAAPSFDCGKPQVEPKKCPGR
OUTCOME_MEASURE: Pla (score)

CC(SC(=N)N)c1cccc(B2OC(C)(C)C(C)(C)O2)c1 (centres unmarked): 324
N=C(N)SCc1ccc(B(O)O)cc1: 32
N=C(N)SCc1ccccc1B(O)O: 3

[P] Cc1cc(CSC(=N)N)cc(B(O)O)c1
[Q] CC1(C)OB(c2ccccc2CSC(=N)N)OC1(C)C
// max by Pla (score) over [ P , Q ] Give the label of your selection.
P
(P: 312, Q: 1)

[a] N=C(N)SCc1cccc(B(O)O)c1
[b] CN=C(N)SCc1cccc(B(O)O)c1
[c] CC(=O)NNC(=N)SCc1cccc(B(O)O)c1
[d] N=C(N)SCc1cc(CSC(=N)N)cc(B(O)O)c1
[e] COc1ccc(CSC(=N)N)cc1B1OC(C)(C)C(C)(C)O1
Hi! Can you put these in order of Pla (score), lowest number first? Could you list the labels in the order requested?
c, b, e, a, d

[1] N=C(N)SCc1cccc([N+](=O)[O-])c1
[2] CC1(C)OB(c2cccc(CSC(=N)N)c2)OC1(C)C
[3] N=C(N)SCc1cc(B(O)O)ccc1Oc1ccccc1
[4] CC1(C)OB(c2cccc(CNC(=N)N)c2)OC1(C)C
Please list these compounds in decreasing order of Pla (score). List the labels according to the requested ordering.
3, 2, 4, 1
(3: 583, 2: 393, 4: 27, 1: 2)

---

biological target: UK (urokinase) (Homo sapiens, UniProt P00749); assay: Score assay, UK (chromogenic substrate S-2444); type: biochemical; design: key: score = fold increase in inhibitor conc / inhibitor conc used (mM); conditions: Table 3, substrate 125 μM
OUTCOME_MEASURE: UK (score)

Known results for compounds:
N=C(N)SCc1ccccc1B(O)O: 26
N=C(N)SCc1ccc(B(O)O)cc1: 3076

[A] CC1(C)OB(c2cccc(CNC(=N)N)c2)OC1(C)C
[B] Cc1cc(CSC(=N)N)cc(B(O)O)c1
Quick one: lower UK (score), A or B ? Please reply using the label of the selected record.
A

---

molecular target: Human α-thrombin (Homo sapiens, UniProt P00734); construct: Human α-thrombin was obtained from J. Freysinnet (Strasbourg); purchased J. Freysinnet (Strasbourg); experiment: Score assay, Thr (chromogenic substrate S-2238); format: biochemical; details: Table 3; Score = fold increase in inhibitor concentration / concentration of inhibitor used (in mM); 37° C., pH 7.4
OUTCOME_MEASURE: Thr Score

[P] N=C(N)SCc1cc(B(O)O)ccc1Oc1ccc(C(=O)c2ccccc2)cc1
[Q] CC1(C)OB(c2ccc(Oc3cccc(Cl)c3)c(CSC(=N)N)c2)OC1(C)C
[R] N=C(N)SCc1cccc([N+](=O)[O-])c1
Given 3 compounds, produce a descending ranking by Thr Score. In your reply, arrange the labels in the requested order.
P, Q, R
(P: 1410, Q: 572, R: 295)

Sourced from patent US20040235792A1
